- target_desc: HLA-A*26:01
- measurement_protocol: IEDB peptide-MHC binding, purified MHC/competitive/fluorescence; filed as Kd, often an IC50 or EC50 that approximates it; bounds were set here for any values at or beyond the usual limits of such assays
- condition_context: source organism: Canarypox virus
pKd: −log10 of the molar value.
readout_name: pKd

Qu. What does the record list as pKd for GTIIVHPNK ?
Ans. ≤ 4.70

----------
- target_desc: HLA-A*31:01
- measurement_protocol: IEDB peptide-MHC binding, purified MHC/direct/fluorescence; filed as Kd, often an IC50 or EC50 that approximates it; bounds were set here for any values at or beyond the usual limits of such assays
- condition_context: source organism: Giardia lamblia ATCC 50803
readout_name: Kd

Qu. Query: Kd; subject: IHKPRPPAT
Ans. ≥ 20 µM
